Taken from patent US20040146519A1.

biological target: HLA-A*0206 (human); test: competition with 125I probe peptide for purified HLA; details: remark: other sources report otherwise
quantity.measured: pIC50
One number for each entry, as −log10 of the molar value.

Prompt: Field request: pIC50 | item: YLSGANLNV [CEA.605V9]
Response: 7.10
